Would you mind telling me the reported Bliss excess of each entry?
tested on: Hs-633T (Other Solid Carcinomas); experiment: Bliss excess, mean over the matrix (fraction); higher = more synergy
One number for each entry.

compound | target-or-system | Bliss excess
CN(CCO)CC[C@H](CSc1ccccc1)Nc1ccc(S(=O)(=O)NC(=O)c2ccc(N3CCC([C@@H](O)c4ccccc4-c4ccc(Cl)cc4)CC3)cc2)cc1S(=O)(=O)C(F)(F)F [AZD4320] + C[C@@H](Nc1cc(F)cc(F)c1)c1cc(C(=O)N(C)C)cc2c(=O)cc(N3CCOCC3)oc12 [AZD8186] (first compound max 1 µM, 7x7, partner max 3 µM) | Hs-633T (Other Solid Carcinomas) | 0.0082

Q) Requested read-out: Bliss excess. Entry: C[C@@H]1COCCN1c1cc(C2([S@](C)(=N)=O)CC2)nc(-c2ccnc3[nH]ccc23)n1 [AZD6738] + C1CC(C1)(C(=O)[O-])C(=O)[O-].N.N.[Pt+2] [Carboplatin] (first compound max 10 µM, 7x7, partner max 10 µM)
A) -0.0264

----------
test system: HARA (Squamous Cell Lung Carcinoma); assay: combination Emax (second highest fraction inhibited in the dose matrix, 72 h); higher = more inhibition; extreme values may be limits of the assay
metric-name: combination Emax
Numbers only.

// known answers, use as guide
molecule | target-or-system | combination Emax
CC1(C)CCC(CN2CCN(c3ccc(C(=O)NS(=O)(=O)c4ccc(NCC5CCOCC5)c([N+](=O)[O-])c4)c(Oc4cnc5[nH]ccc5c4)c3)CC2)=C(c2ccc(Cl)cc2)C1 [Venetoclax] + C1CN(CCC1(C(=O)N[C@@H](CCO)C2=CC=C(C=C2)Cl)N)C3=NC=NC4=C3C=CN4 [Capivasertib] (first compound max 1 µM, 7x7, partner max 3 µM) | HARA (Squamous Cell Lung Carcinoma) | 0.645
CC(=O)c1c(C)c2cnc(Nc3ccc(N4CCNCC4)cn3)nc2n(C2CCCC2)c1=O [Palbociclib] + Cc1c2c(nn1C)CSCc1cc(n(C)n1)CSc1cc(c3ccccc3c1)OCCCc1c(C(=O)O)n(C)c3c-2c(Cl)ccc13 [AZD5991] (first compound max 10 µM, 7x7, partner max 1 µM) | HARA (Squamous Cell Lung Carcinoma) | 0.559
CCN(CCO)CCCOc1ccc2c(Nc3cc(CC(=O)Nc4cccc(F)c4)[nH]n3)ncnc2c1 [AZD2811] + C=CCn1c(=O)c2cnc(Nc3ccc(N4CCN(C)CC4)cc3)nc2n1-c1cccc(C(C)(C)O)n1 [AZD1775] (first compound max 1 µM, partner max 1 µM) | HARA (Squamous Cell Lung Carcinoma) | 0.788

Shifting focus to the molecule that follows.
Q) Give the measured combination Emax of C=CCn1c(=O)c2cnc(Nc3ccc(N4CCN(C)CC4)cc3)nc2n1-c1cccc(C(C)(C)O)n1 [AZD1775] + CCc1c2c(nc3ccc(O)cc13)-c1cc3c(c(=O)n1C2)COC(=O)[C@]3(O)CC [SN-38] (first compound max 1 µM, partner max 0.3 µM) .
A) 0.943

----------
tested on: NCI-H28 (Mesothelioma); assay: Bliss excess, mean over the matrix (fraction); higher = more synergy
If the reported Bliss excess equals or exceeds -0.02, assign Fulfilled. If not, assign Not fulfilled.

Known results for compounds:
compound | class
CC(=O)c1c(C)c2cnc(Nc3ccc(N4CCNCC4)cn3)nc2n(C2CCCC2)c1=O [Palbociclib] + CC1(C)CCC(CN2CCN(c3ccc(C(=O)NS(=O)(=O)c4ccc(NCC5CCOCC5)c([N+](=O)[O-])c4)c(Oc4cnc5[nH]ccc5c4)c3)CC2)=C(c2ccc(Cl)cc2)C1 [Venetoclax] (first compound max 10 µM, 7x7, partner max 1 µM) | Fulfilled
CCN(CCO)CCCOc1ccc2c(Nc3cc(CC(=O)Nc4cccc(F)c4)[nH]n3)ncnc2c1 [AZD2811] + O=C(c1cc(Cc2n[nH]c(=O)c3ccccc23)ccc1F)N1CCN(C(=O)C2CC2)CC1 [Olaparib] (first compound max 1 µM, 7x7, partner max 10 µM) | Not fulfilled
Cn1cnc2c(F)c(Nc3ccc(Br)cc3Cl)c(C(=O)NOCCO)cc21 [Selumetinib] + C[C@@H]1COCCN1C2=NC(=NC(=C2)C3(CC3)[S@](=N)(=O)C)C4=C5C=CNC5=NC=C4 [AZD6738] (first compound max 10 µM, 7x7, partner max 10 µM) | Fulfilled
CN(C)CCCOc1ccc(-c2ccc3ncc4c(c3c2)n(C2CCOCC2)c(=O)n4C)cn1 [AZD0156] + CCN(CCO)CCCOc1ccc2c(Nc3cc(CC(=O)Nc4cccc(F)c4)[nH]n3)ncnc2c1 [AZD2811] (first compound max 1 µM, 7x7, partner max 1 µM) | Not fulfilled
C[C@@H](Nc1cc(F)cc(F)c1)c1cc(C(=O)N(C)C)cc2c(=O)cc(N3CCOCC3)oc12 [AZD8186] + C1CN(CCC1(C(=O)N[C@@H](CCO)C2=CC=C(C=C2)Cl)N)C3=NC=NC4=C3C=CN4 [AZD5363] (first compound max 10 µM, 7x7, partner max 10 µM) | Fulfilled
Cc1c2c(nn1C)CSCc1cc(n(C)n1)CSc1cc(c3ccccc3c1)OCCCc1c(C(=O)O)n(C)c3c-2c(Cl)ccc13 [AZD5991] + Cc1cc2ncnn2cc1Nc1ncc2c(n1)n(C1CCOCC1)c(=O)n2C [AZD7648] (first compound max 1 µM, 7x7, partner max 10 µM) | Fulfilled

Here is another compound to look at.
Q) Does Bliss excess meet or surpass -0.02 for CC(=O)Nc1cccc(-n2c(=O)n(C3CC3)c(=O)c3c(Nc4ccc(I)cc4F)n(C)c(=O)c(C)c32)c1 [Trametinib] + Cc1nc(-c2cn3c(n2)-c2ccc(-c4cnn(C(C)(C)C(N)=O)c4)cc2OCC3)n(C(C)C)n1 [Taselisib] (first compound max 1 µM, 7x7, partner max 10 µM) ?
A) Fulfilled

----------
system: NCI-H69 (Small Cell Lung Carcinoma); assay: Bliss excess, mean over the matrix (fraction); higher = more synergy
metric-name: Bliss excess
One number for each entry.

Example entries begin here.
compound | Bliss excess
C[C@@H](Nc1cc(F)cc(F)c1)c1cc(C(=O)N(C)C)cc2c(=O)cc(N3CCOCC3)oc12 [AZD8186] + C1CN(CCC1(C(=O)N[C@@H](CCO)C2=CC=C(C=C2)Cl)N)C3=NC=NC4=C3C=CN4 [AZD5363] (first compound max 10 µM, 7x7, partner max 10 µM) | -0.0566
O=C(c1cc(Cc2n[nH]c(=O)c3ccccc23)ccc1F)N1CCN(C(=O)C2CC2)CC1 [Olaparib] + CN(CC[C@H](CSC1=CC=CC=C1)NC2=C(C=C(C=C2)S(=O)(=O)NC(=O)C3=CC=C(C=C3)N4CCC(CC4)[C@H](C5=CC=CC=C5C6=CC=C(C=C6)Cl)O)S(=O)(=O)C(F)(F)F)CCO [AZD4320] (first compound max 10 µM, 7x7, partner max 1 µM) | 0.0294

Q) Quick check: Bliss excess of CN(C)CCCOc1ccc(-c2ccc3ncc4c(c3c2)n(C2CCOCC2)c(=O)n4C)cn1 [AZD0156] + O=C(c1cc(Cc2n[nH]c(=O)c3ccccc23)ccc1F)N1CCN(C(=O)C2CC2)CC1 [Olaparib] (first compound max 3 µM, partner max 3 µM) ?
A) 0.0386

----------
system: HO-1-u-1 (Oral Cavity Carcinoma); assay: combination Emax (second highest fraction inhibited in the dose matrix, 72 h); higher = more inhibition; extreme values may be limits of the assay
metric-name: combination Emax
Answers are plain numbers.

compound | reported-measurement
Cc1cc2ncnn2cc1Nc1ncc2c(n1)n(C1CCOCC1)c(=O)n2C [AZD7648] + O=C(c1cc(Cc2n[nH]c(=O)c3ccccc23)ccc1F)N1CCN(C(=O)C2CC2)CC1 [Olaparib] (first compound max 10 µM, 7x7, partner max 10 µM) | 0.261

We next turn to a different compound, shown below.
Q) For the compound C=CCn1c(=O)c2cnc(Nc3ccc(N4CCN(C)CC4)cc3)nc2n1-c1cccc(C(C)(C)O)n1 [AZD1775] + CCc1c2c(nc3ccc(O)cc13)-c1cc3c(c(=O)n1C2)COC(=O)[C@]3(O)CC [SN-38] (first compound max 1 µM, partner max 0.3 µM) , what combination Emax is on record?
A) 0.869

----------
tested on: EN (Endometrial Carcinoma); assay: combination Emax (second highest fraction inhibited in the dose matrix, 72 h); higher = more inhibition; extreme values may be limits of the assay
metric-name: combination Emax
Numbers only.

compound | combination Emax
COc1cccc(OCCCN)c1-c1cc(Nc2cnc(C#N)cn2)n[nH]1 [Prexasertib] + C=CCn1c(=O)c2cnc(Nc3ccc(N4CCN(C)CC4)cc3)nc2n1-c1cccc(C(C)(C)O)n1 [AZD1775] (first compound max 1 µM, partner max 1 µM) | 0.859
CC(=O)c1c(C)c2cnc(Nc3ccc(N4CCNCC4)cn3)nc2n(C2CCCC2)c1=O [Palbociclib] + Cn1cnc2c(F)c(Nc3ccc(Br)cc3Cl)c(C(=O)NOCCO)cc21 [Selumetinib] (first compound max 10 µM, 7x7, partner max 10 µM) | 0.184

Could you now consider this next compound?
Q) Tell me the measured combination Emax of O=C(c1cc(Cc2n[nH]c(=O)c3ccccc23)ccc1F)N1CCN(C(=O)C2CC2)CC1 [Olaparib] + COc1nnc2ccc(N3CCC(c4ccc(OCCN5CCN(C)C(=O)[C@H]5C)cc4)CC3)nn12 [AZD5153] (first compound max 10 µM, 7x7, partner max 1 µM) , please.
A) 0.347

Cited source: the supplement of paper PMC11061612
